Biological target: RBP4 (Mus musculus (Mouse), UniProt Q00724)
Test: Single administration test in mice, plasma RBP4 by ELISA
Type: in vivo
Settings: male C57BL/6J or ICR mice, 50 mg/kg oral single dose, 4 hr after administration, mean±SD
The compounds listed here are annotated with their RBP4 (% of initial/Control) 4 hr.

1. CC(C)(C)c1ccccc1N1CCN(C(=O)C(=O)N2CCC(C(=O)O)C2)CC1 (stereo not shown)
65.0 ± 2.2 % of initial/Control
2. CC(C)(C)c1ccccc1N1CCN(C(=O)C(=O)Nc2ccc(OCC(=O)O)cc2)CC1
65.0 ± 0.7 % of initial/Control
3. CC(C)(C)c1ccccc1N1CCN(C(=O)c2ncoc2CCC(=O)O)CC1
70.1 ± 1.8 % of initial/Control

Attention now shifts to the item below.
Would you mind telling me what RBP4 (% of initial/Control) 4 hr value was observed for CC(C)(C)c1cc(Cl)ccc1N1CCN(C(=O)CC(=O)O)CC1 ?
43.1 ± 1.7 % of initial/Control

Each recorded value in this set is attributed to patent US8853215B2.
